- system: Itk (Homo sapiens)
- Construct: Kinases are expressed as either kinase domains or full length constructs; made in house
- Sequence (Q08881 whole entry, species assumed, the tested form may be a part): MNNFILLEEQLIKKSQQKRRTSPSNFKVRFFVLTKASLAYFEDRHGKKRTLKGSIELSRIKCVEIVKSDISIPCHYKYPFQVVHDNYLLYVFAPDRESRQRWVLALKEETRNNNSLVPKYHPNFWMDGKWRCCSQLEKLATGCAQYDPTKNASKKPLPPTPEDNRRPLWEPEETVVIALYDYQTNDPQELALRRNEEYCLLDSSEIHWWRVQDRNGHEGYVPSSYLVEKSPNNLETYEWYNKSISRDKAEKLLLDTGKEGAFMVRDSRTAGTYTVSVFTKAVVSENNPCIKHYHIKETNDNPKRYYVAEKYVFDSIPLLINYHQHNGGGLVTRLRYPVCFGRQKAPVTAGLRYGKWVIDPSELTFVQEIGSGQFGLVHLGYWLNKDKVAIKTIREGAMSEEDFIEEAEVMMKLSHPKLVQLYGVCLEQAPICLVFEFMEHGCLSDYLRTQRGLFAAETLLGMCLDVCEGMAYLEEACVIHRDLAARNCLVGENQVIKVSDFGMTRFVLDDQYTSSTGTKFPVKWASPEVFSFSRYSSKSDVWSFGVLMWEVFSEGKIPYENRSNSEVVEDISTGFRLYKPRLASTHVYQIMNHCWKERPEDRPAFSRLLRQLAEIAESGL
- protocol.text: Kinase inhibition assay (33P transfer), Itk
- Type: biochemical
- study.conditions: read-out: Itk-1
pIC50: −log10 of the molar value.
property.name: pIC50

Example compounds with recorded pIC50:
INSERT INTO assay_data (compound, property_name, value_measured) VALUES
  ('COc1cc(Nc2ncnc(-n3c(NC(CCO)c4ccccc4)nc4ccccc43)n2)cc(OC)c1OC (stereo not drawn)', 'pIC50', '< 5.07'),
  ('COc1ccc([C@@H](C)Nc2nc3ccccc3n2-c2ncnc(Nc3cc(OC)c(OC)c(OC)c3)n2)cc1', 'pIC50', '< 5.07');

What the record says about "O=c1[nH]c2ccccc2n1-c1ncnc(Nc2ccc3ccccc3c2)n1" : pIC50 is < 4.90
